Values compiled from patent EP2998292A1.

Test system human Keap1 kelch domain (amino acids Ala321-Thr609) (Homo sapiens), IC50 listed for each of the molecules.
# output: bare number, implied unit µM

Request: Entry Cc1cc(C)c(C)c(S(=O)(=O)Nc2cc(C3=CCC(C(=O)O)CC3)cc3ccccc23)c1C (centres unmarked) : reported IC50 = ?
Response: 2.9

Request: Could you share which IC50 value was measured for Cc1cc(C)c(C)c(S(=O)(=O)Nc2ccc(C(CC(=O)O)c3ccccc3)c3ccccc23)c1C (centres unmarked) ?
Response: 6.5

Request: Reported IC50, molecule Cc1cc(C)c(C)c(S(=O)(=O)Nc2cc(N3CCCC(C(=O)O)C3)cc3ccccc23)c1C (centres unmarked) : ____
Response: 8.6

Request: Bench note: what IC50 did CCCCCC(CC(=O)O)c1cc(NS(=O)(=O)c2c(C)c(C)cc(C)c2C)c2ccccc2c1 (centres unmarked) show?
Response: 13

Request: Any idea what its IC50 is? The molecule is Cc1cc(C)c(C)c(S(=O)(=O)Nc2cc(C3CCCC3C(=O)O)cc3ccccc23)c1C (centres unmarked)
Response: 5.2
